Taken from patent US20120077957A1.

Reported Ec50 (nM), cAMP by item:
biological target: human melanocortin-4 receptor (recombinant hMC4-R) (human, UniProt P32245 1-332); test: cell-based or functional assay
Sequence (P32245 whole entry): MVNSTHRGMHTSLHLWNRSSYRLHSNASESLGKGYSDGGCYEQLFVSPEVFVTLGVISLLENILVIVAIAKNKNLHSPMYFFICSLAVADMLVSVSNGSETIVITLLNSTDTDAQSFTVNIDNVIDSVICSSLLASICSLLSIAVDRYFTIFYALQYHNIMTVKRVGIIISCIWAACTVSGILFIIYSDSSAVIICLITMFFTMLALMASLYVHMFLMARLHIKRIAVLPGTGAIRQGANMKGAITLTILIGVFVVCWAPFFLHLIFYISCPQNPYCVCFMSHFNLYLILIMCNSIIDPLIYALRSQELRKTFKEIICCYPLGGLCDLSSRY
Bridge positions count the residues as written; N and C are the ends. Square brackets hold non-standard residues; d marks the D form. Orn = NCCC[C@H](N)C(=O)O

| Binder | Ec50 (nM), cAMP |
| --- | --- |
| Ac-REH[dF]RW[Orn]-NH2 (lactam 2-7) [Peptide No. 4: Ac-Arg-cyclo(Glu-His-D-Phe-Arg-Trp-Orn)-NH2] | 0.2 nM |

As a next step, examine the binder that follows.
Input Ac-DQ[dF]RWK-NH2 (lactam 1-6; SMILES CC(=O)N[C@H]1CC(=O)NCCCC[C@@H](C(N)=O)NC(=O)[C@H](Cc2c[nH]c3ccccc23)NC(=O)[C@H](CCCNC(=N)N)NC(=O)[C@@H](Cc2ccccc2)NC(=O)[C@H](CCC(N)=O)NC1=O, also called Peptide Structure (Asp...Lys) in the row of No. 21) [Asp...Lys analog of peptide No. 21: Ac-cyclo(Asp-Gln-D-Phe-Arg-Trp-Lys)-NH2] , output reported Ec50 (nM), cAMP.
148 nM
